# Assay name: Plasma pharmacokinetics in patients
# Stated conditions: human, in vivo, 60 mg
Readout type: concentration at 7 day

input: So what does the record say about concentration at 7 day for "O=C(O)c1ccc(Nc2ncc3c(n2)-c2ccc(Cl)cc2C(c2c(F)cccc2F)=NC3)cc1" ?
output: ~2000 nM

----------
# Assay name: Plasma pharmacokinetics in patients
# Stated conditions: human, plasma, oral, 35 mg, Cmin, Mean (SD), QID-7D 35 mg, Day 7, Dose 2, steady state, n=3; 6 hours after the second dose
Readout type: concentration at 6 h (nM)
Answers are plain numbers, in nM.

input: So what does the record say about concentration at 6 h for "O=C(O)c1ccc(Nc2ncc3c(n2)-c2ccc(Cl)cc2C(c2c(F)cccc2F)=NC3)cc1" ?
output: 1460

----------
# Assay name: Plasma pharmacokinetics in patients
# Stated conditions: human, plasma, oral, 40 mg, Cmax, QD-7D 40 mg, Day 7, steady state, individual data, n=1
Readout type: Cmax (µM)
Numbers only, in µM.

input: So what does the record say about Cmax for "O=C(O)c1ccc(Nc2ncc3c(n2)-c2ccc(Cl)cc2C(c2c(F)cccc2F)=NC3)cc1" ?
output: 3.04

----------
# Assay name: Plasma pharmacokinetics in patients
# Stated conditions: human, plasma, oral, 25 mg, Cmax, Mean (SD), QID-7D 25 mg, Day 7, Dose 2, steady state, n=6
Readout type: Cmax (nM)
Give bare numbers, in nM.

input: So what does the record say about Cmax for O=C(O)c1ccc(Nc2ncc3c(n2)-c2ccc(Cl)cc2C(c2c(F)cccc2F)=NC3)cc1 [MLN8054] ?
output: 1050

----------
# Assay name: Plasma pharmacokinetics in patients
# Stated conditions: human, plasma, oral, 10 mg, Cmin, Mean (SD), QD-7D 10 mg, Day 7, steady state, n=4; 24 hours after the daily dose
Readout type: concentration at 24 h (nM)
Give bare numbers, in nM.

input: So what does the record say about concentration at 24 h for "O=C(O)c1ccc(Nc2ncc3c(n2)-c2ccc(Cl)cc2C(c2c(F)cccc2F)=NC3)cc1" ?
output: 154

----------
# Assay name: Plasma pharmacokinetics in patients
# Stated conditions: human, plasma, oral, 30 mg, Cmin, Mean (SD), QD-7D 30 mg, Day 7, steady state, n=6; 24 hours after the daily dose
Readout type: concentration at 24 h (nM)
Give bare numbers, in nM.

input: So what does the record say about concentration at 24 h for O=C(O)c1ccc(Nc2ncc3c(n2)-c2ccc(Cl)cc2C(c2c(F)cccc2F)=NC3)cc1 [MLN8054] ?
output: 912

----------
# Assay name: Plasma pharmacokinetics in patients
# Stated conditions: human, plasma, oral, 70 mg, Tmax, Mean (SD), QID/M-7D 70 mg, Day 7, Dose 2, steady state, n=3
Readout type: Tmax (h)
One number for each entry, in h.

input: So what does the record say about Tmax for "O=C(O)c1ccc(Nc2ncc3c(n2)-c2ccc(Cl)cc2C(c2c(F)cccc2F)=NC3)cc1" ?
output: 1.5

----------
# Assay name: Plasma pharmacokinetics in patients
# Stated conditions: human, plasma, oral, 60 mg, Cmax, QID/M-21D 60 mg, Day 21, Dose 2, steady state, individual data, n=1
Readout type: Cmax

input: So what does the record say about Cmax for O=C(O)c1ccc(Nc2ncc3c(n2)-c2ccc(Cl)cc2C(c2c(F)cccc2F)=NC3)cc1 [MLN8054] ?
output: 1500 nM

----------
# Assay name: Plasma pharmacokinetics in patients
# Stated conditions: human, plasma, oral, 20 mg, Tmax, Mean (SD), QD-7D 20 mg, Day 7, steady state, n=3
Readout type: Tmax (h)
One number for each entry, in h.

input: So what does the record say about Tmax for "O=C(O)c1ccc(Nc2ncc3c(n2)-c2ccc(Cl)cc2C(c2c(F)cccc2F)=NC3)cc1" ?
output: 3.3
